- assayed-system: human TLR7 (Homo sapiens, UniProt Q9NYK1)
- Sequence (Q9NYK1 27-1049): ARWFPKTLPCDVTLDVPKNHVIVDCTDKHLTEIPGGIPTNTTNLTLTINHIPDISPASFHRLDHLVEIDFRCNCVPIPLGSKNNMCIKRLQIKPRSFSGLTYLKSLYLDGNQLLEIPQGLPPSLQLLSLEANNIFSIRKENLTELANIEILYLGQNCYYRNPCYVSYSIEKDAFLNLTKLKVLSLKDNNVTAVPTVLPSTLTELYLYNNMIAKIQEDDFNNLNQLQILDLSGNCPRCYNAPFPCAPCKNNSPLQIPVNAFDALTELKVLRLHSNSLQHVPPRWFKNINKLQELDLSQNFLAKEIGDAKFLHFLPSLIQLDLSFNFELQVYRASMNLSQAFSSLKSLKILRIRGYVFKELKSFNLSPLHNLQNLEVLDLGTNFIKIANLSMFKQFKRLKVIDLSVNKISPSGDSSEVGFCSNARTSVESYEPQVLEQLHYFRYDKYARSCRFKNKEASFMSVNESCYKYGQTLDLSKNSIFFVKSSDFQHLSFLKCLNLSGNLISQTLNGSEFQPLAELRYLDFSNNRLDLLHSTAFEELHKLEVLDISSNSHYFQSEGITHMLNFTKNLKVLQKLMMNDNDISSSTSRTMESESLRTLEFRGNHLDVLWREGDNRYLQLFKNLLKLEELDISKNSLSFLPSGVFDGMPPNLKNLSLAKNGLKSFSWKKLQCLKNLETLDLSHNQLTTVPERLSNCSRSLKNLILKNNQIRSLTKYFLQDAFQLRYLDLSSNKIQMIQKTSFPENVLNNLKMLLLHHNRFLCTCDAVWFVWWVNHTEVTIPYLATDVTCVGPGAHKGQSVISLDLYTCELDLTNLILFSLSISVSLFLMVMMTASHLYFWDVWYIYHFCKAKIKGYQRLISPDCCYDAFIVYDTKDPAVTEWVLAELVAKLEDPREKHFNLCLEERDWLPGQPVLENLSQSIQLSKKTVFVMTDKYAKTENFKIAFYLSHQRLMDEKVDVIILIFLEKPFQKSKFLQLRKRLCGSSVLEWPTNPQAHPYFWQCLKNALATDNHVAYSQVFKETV
- protocol: TLR7 inhibition reporter assay (HEK-Blue cells, SEAP reporter, gardiquimod stimulation)
- assay-context: HEK-Blue cells overexpressing human TLR7, SEAP reporter, gardiquimod 7.5 μM
test-readout: pIC50
Lab note — pIC50 values are minus log10 of concentrations in M.

Solved cases (3 shown):
• Cc1cc(-c2[nH]nc(C(=O)NCC3CN(C)CCO3)c2C(C)C)cn2ncnc12 (stereo not shown) [Example 139] = 8.30
• CCN1CCC(c2cnc(-c3n[nH]c(-c4cc(C)c5ncnn5c4)c3C(C)C)nc2)CC1 = 7.74
• Cc1cc(-c2[nH]nc(-c3ncc(C4CCN(CC(C)(C)O)CC4)cn3)c2C(C)C)cn2ncnc12 = 7.03

Entry under review: Cc1cc(-c2[nH]nc(C(=O)N[C@H]3CC[C@H](N(CCC(C)(C)C)CCC(C)(C)C)CC3)c2C(C)C)cn2ncnc12 . Reported pIC50?
8.44
